Target: Human MDM4 (HDM4) 1-114 (Homo sapiens, UniProt O15151)
Sequence (O15151 1-114): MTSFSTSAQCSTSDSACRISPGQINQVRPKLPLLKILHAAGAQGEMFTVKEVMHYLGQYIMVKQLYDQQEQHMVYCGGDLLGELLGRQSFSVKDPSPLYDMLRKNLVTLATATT
Where a SMILES comes first, the peptide text is derived from it. [ ]: non-standard residue; d: D form. The star is where a group is joined. Ala(4-thiazolyl) = N[C@@H](Cc1cscn1)C(=O)O; Phe(4-Cl) = N[C@@H](Cc1ccc(Cl)cc1)C(=O)O; Phe(4-F) = N[C@@H](Cc1ccc(F)cc1)C(=O)O; NMeF = CN[C@@H](Cc1ccccc1)C(=O)O; NMeI = CC[C@H](C)[C@H](NC)C(=O)O; NMeT = CN[C@H](C(=O)O)[C@@H](C)O; hSer = N[C@@H](CCO)C(=O)O; NMeA = CN[C@@H](C)C(=O)O; dNMeA = CN[C@H](C)C(=O)O; Butyryl = CCCC(=O)*; Nme = COCCNCC(=O)O; X1 = O=C(C(F)F)*; Sar = CNCC(=O)O
Each item that follows carries a reported IC50.

COMPOUND: COCC[C@@H]1NC(=O)[C@H]2CCCN2C(=O)[C@H](Cc2ccccc2)N(C)C(=O)[C@H](Cc2ccc(Cl)cc2)NC(=O)[C@H]([C@@H](C)OC)N(C)C(=O)[C@H](Cc2ccc(F)cc2)NC(=O)CN(CCOC)C(=O)[C@@H](C)N(C)C(=O)[C@H](Cc2cscn2)NC(=O)[C@H](C)N(C)C1=O [compound 20] (cyclo([Ala(4-thiazolyl)][dNMeA][Nme][Phe(4-F)][NMeT](Me)[Phe(4-Cl)][NMeF][dP][hSer](Me)[NMeA]))
IC50: 50 to 100 nM
--
COMPOUND: CC[C@H](C)[C@H]1C(=O)N[C@@H](Cc2ccc(Cl)cc2)C(=O)N(C)[C@@H](Cc2ccccc2)C(=O)N2CCC[C@@H]2C(=O)N[C@@H](CCOC)C(=O)N(C)[C@@H](C)C(=O)N[C@@H](Cc2cscn2)C(=O)N(C)[C@H](C)C(=O)N(CCOC)CC(=O)N[C@@H](Cc2ccc(F)cc2)C(=O)N1C [compound 17] (cyclo([Ala(4-thiazolyl)][dNMeA][Nme][Phe(4-F)][NMeI][Phe(4-Cl)][NMeF][dP][hSer](Me)[NMeA]))
IC50: ≥ 100 nM
--
COMPOUND: COCC[C@@H]1NC(=O)[C@H]2CCCN2C(=O)[C@H](Cc2ccccc2)N(C)C(=O)[C@H](Cc2ccc(Cl)cc2)NC(=O)[C@H]([C@@H](C)OC(=O)C(F)F)NC(=O)[C@H](Cc2ccc(F)cc2)NC(=O)CN(CCOC)C(=O)[C@@H](C)N(C)C(=O)[C@H](Cc2cscn2)NC(=O)[C@H](C)N(C)C1=O [compound 7] (cyclo([Ala(4-thiazolyl)][dNMeA][Nme][Phe(4-F)]T(X1)[Phe(4-Cl)][NMeF][dP][hSer](Me)[NMeA]))
IC50: 50 to 100 nM
--
COMPOUND: CCCC(=O)O[C@H](C)[C@@H]1NC(=O)[C@H](Cc2ccc(F)cc2)NC(=O)CN(CCOC)C(=O)[C@@H](C)N(C)C(=O)[C@H](Cc2cscn2)NC(=O)[C@H](C)N(C)C(=O)[C@H](CCOC)NC(=O)[C@H]2CCCN2C(=O)[C@H](Cc2ccccc2)N(C)C(=O)[C@H](Cc2ccc(Cl)cc2)NC1=O [compound 6] (cyclo([Ala(4-thiazolyl)][dNMeA][Nme][Phe(4-F)]T(Butyryl)[Phe(4-Cl)][NMeF][dP][hSer](Me)[NMeA]))
IC50: 50 to 100 nM
--
COMPOUND: COCC[C@@H]1NC(=O)[C@H]2CCCN2C(=O)[C@H](Cc2ccccc2)N(C)C(=O)[C@H](Cc2ccc(Cl)cc2)NC(=O)[C@H](C(C)C)NC(=O)[C@H](Cc2ccc(F)cc2)NC(=O)CN(C)C(=O)[C@@H](C)N(C)C(=O)[C@H](Cc2cscn2)NC(=O)[C@H](C)N(C)C1=O [compound 13] (cyclo([Ala(4-thiazolyl)][dNMeA][Sar][Phe(4-F)]V[Phe(4-Cl)][NMeF][dP][hSer](Me)[NMeA]))
IC50: 25 to 50 nM
